measurement-target: T1, rat B7H3-His (rat, UniProt Q7TPB4 29-244, limits assumed)
T1 construct: not shown: His tag
T1 sequence (looked up): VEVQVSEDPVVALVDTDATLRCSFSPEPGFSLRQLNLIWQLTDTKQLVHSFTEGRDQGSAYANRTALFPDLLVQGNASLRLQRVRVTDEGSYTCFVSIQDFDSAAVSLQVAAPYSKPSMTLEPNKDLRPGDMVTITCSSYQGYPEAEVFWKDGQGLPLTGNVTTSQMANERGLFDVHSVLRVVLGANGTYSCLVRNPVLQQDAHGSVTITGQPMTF
method-notes: phage ELISA, cross-species
For each entry below, report its ELISA signal value.

Solved cases below.
[[record]]
binder = "RWB2 (VHH, Camel VHH; tag not described; also called camel antibody RWB2) VHH: AVQLVDSGGGSVQAGGSLRLSCVVSGYAFSTYDMAWFRQAPGEKCEWVSTVTNNGRTFYADSVKGRFIISRDNAKNILYLQMNSLKPEDTAVYSCAAAGVRWRCASGGNEGTQVTVSS"
experimental_endpoint = "ELISA signal"
reading = 0.981

[[record]]
binder = "RWH1 (VHH, Camel VHH; tag not described; also called camel antibody RWH1) VHH: AVQLVESGGGSVQAGGSLRLSCAASGMNLDNYVRGWLRQAPGSKCEFVSIIRRDGTTDYGDSVKGRFTISRDNAKNTVYLQMNSLKPDDTAVYYCAAIVVPRAAEYACDGLPYRGQGTQVTVSS"
experimental_endpoint = "ELISA signal"
reading = 0.0951

[[record]]
binder = "RWB12 (VHH, Camel VHH; tag not described; also called camel antibody RWB12) VHH: QVQLVESGGGSVQVGGSLRLSCAASGFTYNSYSVGWFRQAPGKEREGVAAINSGGSSTYYAASVKGRFTISRDNAKNTVYLQMNSLKPEDTAMYYCAARSPSPLTFQTRTLREDSYNYWGQGTQVTVSS"
experimental_endpoint = "ELISA signal"
reading = 2.07

[[record]]
binder = "RWD5 (VHH, Camel VHH; tag not described; also called RWDS [sic]; camel antibody RWD5) VHH: AVQLVESGGGLVQPGGSLSVSCAASGFTFSVYWFYWVRQAPRQGLEWVSTIASNGSTYYSDSVKGRFTISRDNAKNTVYLQMNSLKPEDTAVYYCVSDPDYYSDYEREYKFWAQGTQVTVSS"
experimental_endpoint = "ELISA signal"
reading = 0.871


Now turn to the next binder.
Problem: GET /values?readout=ELISA signal&item= RWG8 (VHH, Camel VHH; tag not described; also called camel antibody RWG8) VHH: DVQLVESGGGLVQPGGSLRLSCAASGFTFSRYWMGWFRQAPGKGVEWVSTINSGGGSTYYADSVKGRFTISRDNAKNTLYLQLNNLKTEDTAMYYCAKEQWRTGSRGQGTQVTVSS
Result: 2.44
